target: hPepT1 (Homo sapiens)
Sequence (P46059 whole entry): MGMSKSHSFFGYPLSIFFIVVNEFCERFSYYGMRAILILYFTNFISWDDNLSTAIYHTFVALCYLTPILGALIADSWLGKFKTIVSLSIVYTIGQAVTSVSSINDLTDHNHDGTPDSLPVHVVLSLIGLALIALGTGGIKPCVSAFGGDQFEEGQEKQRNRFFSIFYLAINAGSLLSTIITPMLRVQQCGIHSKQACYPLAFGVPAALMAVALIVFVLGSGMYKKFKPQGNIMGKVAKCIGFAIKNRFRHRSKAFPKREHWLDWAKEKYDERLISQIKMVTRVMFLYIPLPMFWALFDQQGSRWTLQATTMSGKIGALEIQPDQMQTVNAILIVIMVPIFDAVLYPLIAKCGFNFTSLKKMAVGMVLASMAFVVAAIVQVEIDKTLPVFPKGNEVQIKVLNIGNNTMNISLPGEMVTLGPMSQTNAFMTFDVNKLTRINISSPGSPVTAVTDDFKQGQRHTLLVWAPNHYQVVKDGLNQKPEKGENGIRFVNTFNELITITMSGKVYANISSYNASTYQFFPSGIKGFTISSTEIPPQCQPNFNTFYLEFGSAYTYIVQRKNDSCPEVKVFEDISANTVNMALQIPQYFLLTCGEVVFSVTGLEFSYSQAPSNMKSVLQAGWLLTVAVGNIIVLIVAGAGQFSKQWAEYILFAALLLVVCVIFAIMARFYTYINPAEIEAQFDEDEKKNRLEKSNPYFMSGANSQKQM
procedureText: In vitro PepT1 GlySar inhibition screen and IC50 determination
details: PepT1 transiently transfected HeLa cells, 0.0625 to 25 mM; read-out: hPepT1 [3H]Gly-Sar uptake inhibition IC50
Listed compounds paired with reported IC50
valueType: IC50 (mM)

INSERT INTO assay_data (compound, assayvalue) VALUES
  ('CSCC[C@H](N)C(=O)N[C@@]1(C(=O)O)CC2(CC2)[C@H]2[C@H](C(=O)O)[C@H]21.Cl [Example 6, hydrochloride]', 0.25),
  ('C[C@H](N)C(=O)N[C@@]1(C(=O)O)CC2(CC2)[C@H]2[C@H](C(=O)O)[C@H]21.Cl [Example 5, hydrochloride]', 1.98);
